biological target: Hexokinase HKDC1 (Homo sapiens); assay: compounds lowering human HKDC1 activity – biochemical, single concentration, confirmation (AID 504710); conditions: recombinant HKDC1, G6PDH/diaphorase/resazurin fluorescence; at 20 µM; active compounds read high
So I've got a bunch of compounds here, and I need their inhibition values.
Just the number please, in %, no unit attached.

Exercise: Tell me its inhibition given CCOC(=O)c1c(-n2c(C)cc(C=C3C(=O)NC(=S)NC3=O)c2C)sc2c1CCCC2 as the entry.
Solution: 61

Exercise: Tell me its inhibition given COC(=O)C1CN(C#N)N(c2ccc(Cl)cc2)C12c1ccccc1-c1ccccc12 (centres undefined) as the entry.
Solution: 73.6

Exercise: Tell me its inhibition given COc1ccc(OC)c(N2C(=O)/C(=C/c3ccco3)C(=O)NC2=S)c1 as the entry.
Solution: 77.4

Exercise: Tell me its inhibition given Cc1ccc2c(C)c3ccc4ccccc4c3c[n+]2c1 as the entry.
Solution: -65.5

Exercise: Tell me its inhibition given COC(=O)[C@@H]1[C@@H](C(=O)OC)C2(c3ccccc3-c3ccccc32)N(c2ccc(Cl)cc2)N1C#N as the entry.
Solution: 43.1

Exercise: Tell me its inhibition given Cc1cccc(N2C(=O)NC(=O)/C(=C\c3cc(C)n(-c4sc5c(c4C#N)CCCC5)c3C)C2=O)c1C as the entry.
Solution: 54.9

Exercise: Tell me its inhibition given CC[C@H](C)/C=C(C)/C=C/C1=CC2=C(Cl)C(=O)[C@@](C)(OC(C)=O)C(=O)C2=CO1 as the entry.
Solution: 45.8

Exercise: Tell me its inhibition given Cn1c(=O)c2c(nc(N/N=C/c3c(O)n(C4CCCCC4)c(=S)[nH]c3=O)n2C)n(C)c1=O as the entry.
Solution: -49.5

Exercise: Tell me its inhibition given O=C1NC(=S)N(c2ccc(F)cc2)C(=O)/C1=C\c1ccoc1 as the entry.
Solution: 55.2

Exercise: Tell me its inhibition given Cc1ccc(N2C(=O)NC(=O)/C(=C\c3cc(C)n(-c4sc5c(c4C#N)CCCC5)c3C)C2=O)cc1 as the entry.
Solution: 77.3

Exercise: Tell me its inhibition given COC(=O)C1=C(C(=O)OC)SC2(S1)C(C(=O)OC)=C(C(=O)OC)Sc1c2ssc1=O as the entry.
Solution: -88.9

Exercise: Tell me its inhibition given CC(=NNC(=S)N1CC2CCC(CC2)C1)c1nccs1 as the entry.
Solution: -42.1

Exercise: Tell me its inhibition given O=c1c2ccccc2[se]n1-c1ccccc1 as the entry.
Solution: 5.01

Exercise: Tell me its inhibition given COC(=O)C[C@]1(C(=O)OC)CN(C#N)N(c2ccc(Cl)cc2)C12c1ccccc1-c1ccccc12 as the entry.
Solution: 62.4
